# target or system: OTU domain-containing protein 3 (Homo sapiens)
# assay comment: Validation of screening hits, potency titration, in vitro enzymatic, OTU domain-containing protein 3 DUB inhibitors (AID 1645868)
# assay conditions: purified OTUD3, ubiquitin-rhodamine cleavage fluorescence, 2 h
The source made the active and inactive calls.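 Rule for the calls: active = maximal percent inhibition of the deubiquitinase OTUD3 of at least 30% across the tested doses; inactive = the rest.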
Below, each of the molecules is paired with its reported IC50 value.
readout type: IC50

INSERT INTO results (molecule, result) VALUES
  ('Cc1ccc2c(c1)N(Cc1nc(-c3ccc(F)cc3)no1)C(=O)CO2', '> 50 µM (inactive)'),
  ('Cc1ccc(Cc2nc(-c3ccc(=O)[nH]c3)no2)cc1', '> 50 µM (inactive)'),
  ('Cc1nc(C(=O)Nc2cccc(Cl)c2Cl)nn1-c1cc(Cl)cc(Cl)c1', '> 50 µM (inactive)'),
  ('Cc1ccc(NC(=O)C2CCN(c3cncnc3N3CCCC3)CC2)cc1', '> 50 µM (inactive)'),
  ('Cc1c(-c2ccc(C#N)cc2)oc2ccc(Br)cc2c1=O', '> 50 µM (inactive)'),
  ('COc1cc(N)c(Cl)cc1C(=O)OCC(=O)c1ccc2c(c1)OCCO2', '> 50 µM (inactive)'),
  ('CC1CCCCN1c1nc(F)c2c(c1F)S(=O)(=O)CCN2Cc1ccccc1 (stereo unspecified)', '> 50 µM (inactive)'),
  ('Cc1cccc(NC(=O)Nc2ccc(C)n(CC(=O)Nc3ccccc3)c2=O)c1', '> 50 µM (inactive)'),
  ('CCCc1nc2c(sc3nc4c(cc32)COC(C)(C)C4)c(=O)n1CC(=O)Nc1ccccc1C', '30 µM'),
  ('CCOc1ccc(-c2nc(C#N)c(N3CCN(C(=O)c4ccccc4C)CC3)o2)cc1', '43.4 µM'),
  ('Cc1cc(O)c(Oc2cc(C)cc(O)c2O)c(O)c1', '16.8 µM'),
  ('COc1ccccc1CNC(=O)CCCCn1c(=O)c2ccccc2n(Cc2ccccc2C#N)c1=O', '16.9 µM'),
  ('O=C(CC1C(=O)Nc2nc(-c3ccccc3)nn21)Nc1cccc2ccccc12 (stereo unspecified)', '25 µM'),
  ('O=C1NC(=O)/C(=C/c2ccc(OC(=O)c3ccc(Cl)cc3Cl)cc2)N1', '11 µM'),
  ('O=C(NC1(O)C(=O)c2ccccc2C1=O)c1cccc2c1-c1ccccc1C2=O', '35.1 µM'),
  ('COc1ccc(C2CC(c3ccccc3)N(C(=O)C3CC3)c3ncnn32)cc1 (stereo unspecified)', '> 50 µM (inactive)'),
  ('COc1ccc(NC(=O)C2C3C=CC4(O3)C2C(=O)N(CCc2ccccc2)C4C(=O)NC2CCCCC2)cc1 (stereo unspecified)', '26.6 µM'),
  ('CC1CCCCN1CCCNC(=O)c1ccc(N2CCc3ccccc32)s1 (stereo unspecified)', '> 50 µM (inactive)'),
  ('Cc1nc(-c2ccc(C(=O)NCc3ccc(F)cc3)cc2)cs1', '> 50 µM (inactive)'),
  ('CCCCCC(O)c1c(O)cc2c(c1O)C(=O)c1c(O)cc(O)cc1C2=O (stereo unspecified)', '> 50 µM (inactive)'),
  ('COc1ccc(C2CC(=O)Nc3n[nH]c(-c4ccccc4)c32)cc1OC (stereo unspecified)', '> 50 µM (inactive)');

---

# target or system: OTU domain-containing protein 3 (Homo sapiens) (UniProt Q5T2D3)
# Sequence (Q5T2D3 whole entry, looked up, the tested form may be a part): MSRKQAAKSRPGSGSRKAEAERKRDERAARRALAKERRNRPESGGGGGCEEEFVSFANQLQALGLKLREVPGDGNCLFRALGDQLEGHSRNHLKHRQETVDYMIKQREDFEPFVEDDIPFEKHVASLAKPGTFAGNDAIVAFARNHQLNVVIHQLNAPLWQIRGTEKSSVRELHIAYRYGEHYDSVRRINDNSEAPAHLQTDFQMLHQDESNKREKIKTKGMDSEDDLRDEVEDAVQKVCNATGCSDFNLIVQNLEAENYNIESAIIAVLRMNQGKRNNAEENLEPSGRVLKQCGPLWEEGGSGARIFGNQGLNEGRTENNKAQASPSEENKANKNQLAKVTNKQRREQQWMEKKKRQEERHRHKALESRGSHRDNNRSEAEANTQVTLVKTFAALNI
# assay comment: Validation of screening hits, potency titration, in vitro enzymatic, OTU domain-containing protein 3 DUB inhibitors (AID 1645868)
# assay conditions: purified OTUD3, ubiquitin-rhodamine cleavage fluorescence, 2 h
Calls of active or inactive are those of the source.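 Rule for the calls: active = maximal percent inhibition of the deubiquitinase OTUD3 of at least 30% across the tested doses; inactive = the rest.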
Labels: active, inactive

INSERT INTO measurements (compound, category_label) VALUES
  ('CCOc1ccc(CCNC(=O)c2cccc3c2C(=O)N(CCOC)C3)cc1OCC', 'inactive'),
  ('O=C(NCC(c1cccnc1)N1CCc2ccccc2C1)C(=O)Nc1ccc2c(c1)OCO2 (stereo unspecified)', 'active'),
  ('COc1cc(Cl)ccc1C(=O)Nc1cccc(-n2cnnn2)c1C', 'active'),
  ('O=C(Nc1ccccc1-c1nc2ccccc2[nH]1)c1sc2ccccc2c1Cl', 'active'),
  ('Nc1c(C(=O)NCCc2ccccc2)nnn1-c1ccc(F)cc1', 'inactive'),
  ('N#Cc1cccc(NC(=O)Cn2cccc(-c3nc(-c4ccccc4)no3)c2=O)c1', 'inactive');

---

# target or system: OTU domain-containing protein 3 (Homo sapiens)
# assay comment: Validation of screening hits, potency titration, in vitro enzymatic, OTU domain-containing protein 3 DUB inhibitors (AID 1645868)
# assay conditions: purified OTUD3, ubiquitin-rhodamine cleavage fluorescence, 2 h
The source made the active and inactive calls.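 Rule for the calls: active = maximal percent inhibition of the deubiquitinase OTUD3 of at least 30% across the tested doses; inactive = the rest.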
Outcome codes: active, inactive

INSERT INTO measurements (compound, target_or_system, category_label) VALUES
  ('Cc1sc2ncn3c(=O)n(CC(=O)Nc4ccc(F)c(Cl)c4)nc3c2c1C', 'OTU domain-containing protein 3 (Homo sapiens)', 'inactive'),
  ('Cc1cc(C)n(-c2cccc(C(=O)Nc3ccc4c(c3)CCN4S(C)(=O)=O)c2)n1', 'OTU domain-containing protein 3 (Homo sapiens)', 'inactive'),
  ('Cc1cccc2sc(NC(=O)c3nnn(-c4ccc(F)cc4)n3)nc12', 'OTU domain-containing protein 3 (Homo sapiens)', 'inactive'),
  ('COc1ccc(C(=O)N2CCCC3(C2)Nc2cccnc2NC3=NC2CCCC2)cn1 (stereo not given)', 'OTU domain-containing protein 3 (Homo sapiens)', 'inactive'),
  ('Cc1c(-c2nn3c(-c4ccco4)nnc3s2)cccc1[N+](=O)[O-]', 'OTU domain-containing protein 3 (Homo sapiens)', 'inactive'),
  ('O=C(Cn1cncc(C(=O)NC2CCCC2)c1=O)Nc1cccc(F)c1', 'OTU domain-containing protein 3 (Homo sapiens)', 'active'),
  ('Cc1cc(C)c(NC(=O)Cn2c(=O)n(CCC(=O)NCc3ccc4c(c3)OCO4)c(=O)c3sccc32)c(C)c1', 'OTU domain-containing protein 3 (Homo sapiens)', 'active'),
  ('Nc1nonc1C(=O)NCCNCc1cccc(OCc2ccc(Cl)cc2)c1', 'OTU domain-containing protein 3 (Homo sapiens)', 'inactive'),
  ('Cc1cccc(C)c1NC(=O)Cn1c(=O)n(CCCCC(=O)NCc2ccc3c(c2)OCO3)c(=O)c2ccccc21', 'OTU domain-containing protein 3 (Homo sapiens)', 'active'),
  ('Cc1ccccc1Cn1ccc2ccn(Cc3cccnc3)c2c1=O', 'OTU domain-containing protein 3 (Homo sapiens)', 'inactive');

---

# target or system: OTU domain-containing protein 3 (Homo sapiens)
# assay comment: Validation of screening hits, potency titration, in vitro enzymatic, OTU domain-containing protein 3 DUB inhibitors (AID 1645868)
# assay conditions: purified OTUD3, ubiquitin-rhodamine cleavage fluorescence, 2 h
Activity calls are given as the source filed them.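 How the source made its calls: active means maximal percent inhibition of the deubiquitinase OTUD3 of at least 30% across the tested doses; inactive means the rest.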
Outcome codes: label 1 for active, label 0 for inactive

INSERT INTO results (molecule, category_label) VALUES
  ('CCCCc1nc2sc3c(NCCN4CCOCC4)ncnc3c2c2c1CCC2', 'label 0'),
  ('CC(=O)Nc1cccc(NC(=O)COc2cccc3ccc(N4CCCC4)nc23)c1', 'label 0'),
  ('c1ccc(-c2nc(-c3nnn(-c4ccccc4)c3-c3ccncc3)no2)cc1', 'label 1'),
  ('Cc1ccc2c(=O)c3c([nH]c2c1C)CCN(CC(=O)NCc1ccc2c(c1)OCO2)C3', 'label 0'),
  ('CCOC(=O)c1ccc(S(=O)(=O)N2CCC(C(=O)OC(C)C(=O)Nc3cccc([N+](=O)[O-])c3)CC2)cc1 (stereo not given)', 'label 1');

---

# target or system: OTU domain-containing protein 3 (Homo sapiens)
# assay comment: Validation of screening hits, potency titration, in vitro enzymatic, OTU domain-containing protein 3 DUB inhibitors (AID 1645868)
# assay conditions: purified OTUD3, ubiquitin-rhodamine cleavage fluorescence, 2 h
Activity calls are given as the source filed them.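 Rule for the calls: active = maximal percent inhibition of the deubiquitinase OTUD3 of at least 30% across the tested doses; inactive = the rest.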
Possible outcomes: active, inactive

INSERT INTO assay_data (compound, category_label) VALUES
  ('CCc1cccc2c(C(=O)COc3ccc(C#N)cc3)c[nH]c12', 'active'),
  ('COc1ccc(NC(=O)c2ccccc2OCC(=O)Nc2ccccc2C(F)(F)F)c(C)c1', 'active'),
  ('COc1ccc(C)cc1NC(=O)C1CC(=O)Nc2nc3ccccc3n21 (configuration not stated)', 'active'),
  ('COc1ccc(CC(NC(C)=O)C(=O)NC2CCN(c3c(Cc4ccccc4)c(C)nc4ncnn34)CC2)cc1OC (configuration not stated)', 'inactive'),
  ('Cc1cc(C#N)c2c(C)ccc(C(C)C)cc1-2', 'inactive'),
  ('CCC(C)(C)C1CCC2(CC1)N=C(N)Nc1nc3ccccc3n12 (configuration not stated)', 'inactive'),
  ('COc1ccc(OC)c(NC(=O)c2ccc(-n3nnnc3SC)cc2)c1', 'inactive'),
  ('O=C(c1ccc2cc[nH]c2c1)N1CCC(Nc2cccnc2)C1 (configuration not stated)', 'inactive'),
  ('Cc1cccc(NC(=O)CSc2nnc(-c3n[nH]c4c3CCC4)n2N)c1', 'active'),
  ('COc1cccc(NC(=O)CCc2c(C)nn(-c3cc(N4CCCCC4)ncn3)c2C)c1', 'inactive'),
  ('N#Cc1ccc(NC(=O)Nc2cccn(Cc3ccccc3Br)c2=O)cc1', 'inactive'),
  ('O=C1C=CC(O)C2C1CC13SSC4(CC5C(=O)C=CC(O)C5N4C1=O)C(=O)N23 (configuration not stated)', 'inactive'),
  ('Cc1nn(CC(=O)NCc2ccccc2F)c2ccccc12', 'inactive'),
  ('COc1ccc(/C=C/C(=O)Nc2cccc(S(=O)(=O)Nc3ccccc3Cl)c2)c(OC)c1', 'active'),
  ('NC(=O)Cn1c(=O)n(Cc2ccc(C(=O)NC3CCCC3)cc2)c(=O)c2ccccc21', 'inactive'),
  ('CCCOc1ccc(C(=O)Nc2ccc(S(=O)(=O)Nc3cc(C)nc(C)n3)cc2)cc1', 'inactive'),
  ('COc1cccc(CNC(=O)C2=Cc3cccc(OC)c3OC2)c1', 'inactive'),
  ('Fc1cccc(Cn2cc(-c3noc(-c4ccncc4)n3)nn2)c1', 'inactive'),
  ('Cc1ccc(C(=O)NCCc2nc(-c3ccc4c(c3)OCO4)n[nH]2)cc1F', 'inactive'),
  ('Fc1ccccc1N1CCN(c2ncc3c(n2)CCN(Cc2ccccn2)C3)CC1', 'inactive'),
  ('COc1ccc(OCC(=O)Nc2ccc(C)c(OCc3cc(=O)n4ccccc4n3)c2)cc1', 'inactive'),
  ('COc1ccc(CN=C2NS(=O)(=O)C(c3ccc(F)cc3)=C2C)cc1OC', 'inactive');
